# Target desc: CLK3A (Homo sapiens, UniProt P49761)
# Construct: purchased in-house DSF kinase panel (SGC-style construct names; the trailing letter is the construct ID)
# Sequence (P49761 127-484): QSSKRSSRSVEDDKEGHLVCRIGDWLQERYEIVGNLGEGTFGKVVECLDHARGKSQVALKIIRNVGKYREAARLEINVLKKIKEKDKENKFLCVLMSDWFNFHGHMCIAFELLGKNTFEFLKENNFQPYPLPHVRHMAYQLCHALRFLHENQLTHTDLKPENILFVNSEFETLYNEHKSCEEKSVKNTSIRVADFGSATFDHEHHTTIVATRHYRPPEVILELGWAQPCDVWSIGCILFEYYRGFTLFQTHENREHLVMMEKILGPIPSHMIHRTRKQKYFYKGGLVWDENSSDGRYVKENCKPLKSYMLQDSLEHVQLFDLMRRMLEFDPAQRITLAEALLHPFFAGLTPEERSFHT
# Test protocol: DSF Tm panel
# Assay type: binding
# Condition description: 10 μM compound
Provide the reported ΔTm at 10 µM of each item.
Param answer (str): number followed by unit.

stdin: Field request: ΔTm at 10 µM | item: O=C(NCc1ccccc1Cl)Nc1ccc2cc1OCCOCCNc1ccn3ncc-2c3n1
stdout: 0.1 °C

stdin: Next up: COc1cc(CNC(=O)Nc2ccc3cc2OCCOCCNc2ccn4ncc-3c4n2)ccc1F
stdout: 0.5 °C

stdin: Same question for O=C(NCc1ccc(Cl)cc1F)Nc1ccc2cc1OCCOCCNc1ccn3ncc-2c3n1 please.
stdout: 0.6 °C

stdin: Moving on to the next compound: O=C(NCc1cccc(Cl)c1)Nc1ccc2cc1OCCOCCNc1ccn3ncc-2c3n1
stdout: 0.3 °C

====

# Target desc: DAPK3 (DAPK3A) (Homo sapiens, UniProt O43293)
# Construct: purchased in-house DSF kinase panel (SGC-style construct names; the trailing letter is the construct ID)
# Sequence (O43293 whole entry): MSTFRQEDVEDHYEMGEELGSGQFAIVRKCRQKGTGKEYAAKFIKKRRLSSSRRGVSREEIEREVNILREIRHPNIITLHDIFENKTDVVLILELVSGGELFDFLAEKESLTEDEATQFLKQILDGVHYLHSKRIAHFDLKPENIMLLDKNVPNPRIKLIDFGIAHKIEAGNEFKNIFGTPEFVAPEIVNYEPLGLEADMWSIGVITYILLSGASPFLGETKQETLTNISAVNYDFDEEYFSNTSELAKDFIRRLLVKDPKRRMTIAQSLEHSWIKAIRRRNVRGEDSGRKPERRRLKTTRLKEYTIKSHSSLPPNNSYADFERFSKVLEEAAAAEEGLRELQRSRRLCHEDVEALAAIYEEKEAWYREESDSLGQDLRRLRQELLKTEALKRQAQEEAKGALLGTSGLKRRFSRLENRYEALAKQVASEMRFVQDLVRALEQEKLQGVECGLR
# Test protocol: DSF Tm panel
# Format: binding
# Condition description: 10 μM compound
Returns one of yes (1) or no (0); yes (1) when ΔTm at 10 µM is >= 0.7 °C.

stdin: Does Cc1cc(Cl)ccc1CNC(=O)Nc1ccc2cc1OCCOCCNc1ccn3ncc-2c3n1 have a reported ΔTm at 10 µM of at least 0.7 °C?
stdout: no (0)

stdin: Moving on to the next compound: O=C(NCc1ccccc1)Nc1ccc2cc1OCCOCCNc1ccn3ncc-2c3n1
stdout: yes (1)

stdin: Try this compound next: O=C(NCc1ccc(Cl)cc1)Nc1ccc2cc1OCCOCCNc1ccn3ncc-2c3n1
stdout: yes (1)

stdin: Another compound: COc1ccccc1CNC(=O)Nc1ccc2cc1OCCOCCNc1ccn3ncc-2c3n1
stdout: no (0)

stdin: Also check O=C(NCc1ccc(C(F)(F)F)cc1)Nc1ccc2cc1OCCOCCNc1ccn3ncc-2c3n1
stdout: yes (1)

stdin: O=C(NCc1ccc(Cl)cc1Cl)Nc1ccc2cc1OCCOCCNc1ccn3ncc-2c3n1 , same question.
stdout: no (0)

stdin: Now this one: Cc1ccc(F)cc1CNC(=O)Nc1ccc2cc1OCCOCCNc1ccn3ncc-2c3n1
stdout: yes (1)

====

# Target desc: CHEK2A (Homo sapiens)
# Construct: purchased in-house DSF kinase panel (SGC-style construct names; the trailing letter is the construct ID)
# Sequence (O96017 210-531): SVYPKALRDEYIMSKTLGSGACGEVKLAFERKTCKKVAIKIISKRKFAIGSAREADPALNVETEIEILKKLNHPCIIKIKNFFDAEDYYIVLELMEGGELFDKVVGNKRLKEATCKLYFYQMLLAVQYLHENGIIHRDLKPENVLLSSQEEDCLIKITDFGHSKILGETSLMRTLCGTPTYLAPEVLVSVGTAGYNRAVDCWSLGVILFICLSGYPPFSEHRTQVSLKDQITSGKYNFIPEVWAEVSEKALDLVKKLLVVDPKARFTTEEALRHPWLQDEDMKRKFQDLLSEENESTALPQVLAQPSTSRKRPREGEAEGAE
# Test protocol: DSF Tm panel
# Type: binding
# Condition description: 10 μM compound
Give measured ΔTm at 10 µM for each item. Keep answers brief.
Provide only the numeric value, understood in °C.

stdin: So what does the record say about ΔTm at 10 µM for CN1CCN(C(=O)Nc2ccc3cc2OCCOCCNc2ccn4ncc-3c4n2)CC1 [compound 35] ?
stdout: 0.8

stdin: Then COc1cc(CNC(=O)Nc2ccc3cc2OCCOCCNc2ccn4ncc-3c4n2)ccc1F [compound 33] ?
stdout: 6.5

stdin: # repeat for COc1cccc(CNC(=O)Nc2ccc3cc2OCCOCCNc2ccn4ncc-3c4n2)c1 [compound 30]
stdout: 5.1

stdin: Continue with Cc1ccc(F)cc1CNC(=O)Nc1ccc2cc1OCCOCCNc1ccn3ncc-2c3n1 [compound 26]
stdout: 7.2

====

# Target desc: STK17BA (Homo sapiens, UniProt O94768)
# Construct: purchased in-house DSF kinase panel (SGC-style construct names; the trailing letter is the construct ID)
# Sequence (O94768 25-329): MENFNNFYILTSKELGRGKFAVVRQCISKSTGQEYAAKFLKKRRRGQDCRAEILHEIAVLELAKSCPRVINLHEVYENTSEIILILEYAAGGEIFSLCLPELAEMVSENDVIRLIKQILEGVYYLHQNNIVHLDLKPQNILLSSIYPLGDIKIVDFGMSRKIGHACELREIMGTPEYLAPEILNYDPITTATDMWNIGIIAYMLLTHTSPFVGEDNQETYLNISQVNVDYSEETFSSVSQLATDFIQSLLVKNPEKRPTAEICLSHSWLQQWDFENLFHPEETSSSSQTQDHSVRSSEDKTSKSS
# Test protocol: DSF Tm panel
# Type: binding
# Condition description: 10 μM compound
Kindly supply the reported ΔTm at 10 µM values for the records listed here.
Please respond with the number in °C and leave the unit unwritten.

stdin: Given Cc1cc(Cl)ccc1CNC(=O)Nc1ccc2cc1OCCOCCNc1ccn3ncc-2c3n1 [compound 23] , state its recorded ΔTm at 10 µM.
stdout: 3.3

stdin: Again, but for O=C(NCc1ccc(Cl)cc1Cl)Nc1ccc2cc1OCCOCCNc1ccn3ncc-2c3n1 [compound 20]
stdout: 2.8

stdin: Then this compound: O=C(NCc1ccccc1C(F)(F)F)Nc1ccc2cc1OCCOCCNc1ccn3ncc-2c3n1 [compound 27]
stdout: 5.1

stdin: Do the same for COc1ccccc1CNC(=O)Nc1ccc2cc1OCCOCCNc1ccn3ncc-2c3n1 [compound 29] please
stdout: 1.7

====

# Target desc: TLK1A (Homo sapiens)
# Construct: purchased in-house DSF kinase panel (SGC-style construct names; the trailing letter is the construct ID)
# Sequence (Q9UKI8 456-734): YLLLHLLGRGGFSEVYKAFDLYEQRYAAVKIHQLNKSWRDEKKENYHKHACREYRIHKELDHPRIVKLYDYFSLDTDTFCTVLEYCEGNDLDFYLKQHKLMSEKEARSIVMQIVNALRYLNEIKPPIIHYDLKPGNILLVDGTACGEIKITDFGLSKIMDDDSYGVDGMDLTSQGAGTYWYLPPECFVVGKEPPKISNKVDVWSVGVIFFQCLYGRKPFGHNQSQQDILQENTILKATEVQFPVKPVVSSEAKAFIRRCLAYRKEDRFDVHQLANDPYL
# Test protocol: DSF Tm panel
# Format: binding
# Condition description: 10 μM compound
Reported metric: ΔTm at 10 µM (°C)
Write down the numeric answer in °C and omit the unit.

stdin: Please give the measured ΔTm at 10 µM for this compound: COc1ccc(CNC(=O)Nc2ccc3cc2OCCOCCNc2ccn4ncc-3c4n2)cc1F
stdout: 1.2

stdin: Please answer likewise for COc1ccccc1CNC(=O)Nc1ccc2cc1OCCOCCNc1ccn3ncc-2c3n1
stdout: 0.4

stdin: Also C[C@H](NC(=O)Nc1ccc2cc1OCCOCCNc1ccn3ncc-2c3n1)c1ccccc1 , if possible.
stdout: 0.4

stdin: Request: COc1ccc(CNC(=O)Nc2ccc3cc2OCCOCCNc2ccn4ncc-3c4n2)cc1
stdout: 1.1

stdin: Same again, this time with COc1cccc(CNC(=O)Nc2ccc3cc2OCCOCCNc2ccn4ncc-3c4n2)c1
stdout: 0.7

stdin: Follow-up item: COc1cc(CNC(=O)Nc2ccc3cc2OCCOCCNc2ccn4ncc-3c4n2)ccc1F
stdout: 0.9

stdin: What do we get for Cc1ccc(F)cc1CNC(=O)Nc1ccc2cc1OCCOCCNc1ccn3ncc-2c3n1 ?
stdout: 0.9

stdin: Also O=C(NCc1ccc(C(F)(F)F)cc1)Nc1ccc2cc1OCCOCCNc1ccn3ncc-2c3n1 ?
stdout: 1.6

stdin: Follow-up entry: O=C(NCc1ccccc1C(F)(F)F)Nc1ccc2cc1OCCOCCNc1ccn3ncc-2c3n1
stdout: 1.3

stdin: And Cc1cc(Br)ccc1CNC(=O)Nc1ccc2cc1OCCOCCNc1ccn3ncc-2c3n1 ?
stdout: 1

====

# Target desc: K2A2 (CSNK2A2A) (Homo sapiens)
# Construct: purchased in-house DSF kinase panel (SGC-style construct names; the trailing letter is the construct ID)
# Sequence (P19784 whole entry): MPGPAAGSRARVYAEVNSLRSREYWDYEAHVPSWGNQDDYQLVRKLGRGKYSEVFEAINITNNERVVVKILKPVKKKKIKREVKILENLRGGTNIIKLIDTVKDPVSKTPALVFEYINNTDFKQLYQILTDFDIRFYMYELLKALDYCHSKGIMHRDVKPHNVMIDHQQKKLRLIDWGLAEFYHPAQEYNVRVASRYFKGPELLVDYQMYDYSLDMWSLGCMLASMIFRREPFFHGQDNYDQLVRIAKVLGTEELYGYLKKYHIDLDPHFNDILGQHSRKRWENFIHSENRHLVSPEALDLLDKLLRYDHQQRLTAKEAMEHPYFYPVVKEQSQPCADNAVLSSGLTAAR
# Test protocol: DSF Tm panel
# Format: binding
# Condition description: 10 μM compound
Labelling: ΔTm at 10 µM reported below 2 °C becomes 1.0; at or above becomes 0.0.

stdin: Does this compound meet the criterion ΔTm at 10 µM < 2 °C? COc1ccc(CNC(=O)Nc2ccc3cc2OCCOCCNc2ccn4ncc-3c4n2)cc1
stdout: 0.0

stdin: Field entry: O=C(NCc1ccc(Cl)cc1Cl)Nc1ccc2cc1OCCOCCNc1ccn3ncc-2c3n1
stdout: 0.0

stdin: Entry COc1ccccc1CNC(=O)Nc1ccc2cc1OCCOCCNc1ccn3ncc-2c3n1 please
stdout: 1.0

stdin: Repeat for the following compound: O=C(NCc1ccccc1)Nc1ccc2cc1OCCOCCNc1ccn3ncc-2c3n1
stdout: 0.0

stdin: Also, CN1CCN(C(=O)Nc2ccc3cc2OCCOCCNc2ccn4ncc-3c4n2)CC1 please.
stdout: 0.0

stdin: Similarly, O=C(NCc1ccc(Cl)cc1)Nc1ccc2cc1OCCOCCNc1ccn3ncc-2c3n1 ?
stdout: 0.0

stdin: Now the same for O=C(NCc1ccc(C(F)(F)F)cc1)Nc1ccc2cc1OCCOCCNc1ccn3ncc-2c3n1
stdout: 1.0

stdin: Can you handle C[C@H](NC(=O)Nc1ccc2cc1OCCOCCNc1ccn3ncc-2c3n1)c1ccccc1 next?
stdout: 1.0

====

# Target desc: NEK2A (Homo sapiens)
# Construct: purchased in-house DSF kinase panel (SGC-style construct names; the trailing letter is the construct ID)
# Sequence (P51955 1-271): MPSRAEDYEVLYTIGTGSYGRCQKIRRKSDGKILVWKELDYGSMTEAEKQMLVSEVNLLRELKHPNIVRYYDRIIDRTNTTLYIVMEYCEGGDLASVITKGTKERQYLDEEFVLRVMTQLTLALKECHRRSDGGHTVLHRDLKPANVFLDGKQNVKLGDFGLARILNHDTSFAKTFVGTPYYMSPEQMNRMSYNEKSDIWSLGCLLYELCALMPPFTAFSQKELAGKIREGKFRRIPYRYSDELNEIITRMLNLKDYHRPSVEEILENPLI
# Test protocol: DSF Tm panel
# Format: binding
# Condition description: 10 μM compound
# Method: The synthesized urea-based derivatives were evaluated in a panel of kinases by differential scanning fluorescence (DSF) to investigate their selectivity profile. […] This was also reflected in the overall low selectivity score (S) throughout the series, which is determined by the ratio between the number of kinases that are stabilized above 5 °C and the total number of kinases tested (Figure ). […]
Reported metric: ΔTm at 10 µM (°C)
Number in °C, nothing else.

stdin: Please state recorded ΔTm at 10 µM (tested on NEK2A (Homo sapiens)) of COc1cc(CNC(=O)Nc2ccc3cc2OCCOCCNc2ccn4ncc-3c4n2)ccc1F [compound 33]
stdout: -1.3

stdin: What do we get for COc1ccc(CNC(=O)Nc2ccc3cc2OCCOCCNc2ccn4ncc-3c4n2)cc1 [compound 31] ?
stdout: -1.3

stdin: Repeat for the following molecule: COc1ccccc1CNC(=O)Nc1ccc2cc1OCCOCCNc1ccn3ncc-2c3n1 [compound 29]
stdout: -0.3

stdin: Note, next up: COc1cccc(CNC(=O)Nc2ccc3cc2OCCOCCNc2ccn4ncc-3c4n2)c1 [compound 30]
stdout: -0.5

stdin: For O=C(NCc1ccc(C(F)(F)F)cc1)Nc1ccc2cc1OCCOCCNc1ccn3ncc-2c3n1 [compound 28] then?
stdout: 0.4
